molecular target: KRas^G12S (Homo sapiens, UniProt P01116, G12S); construct: Biotinylated KRas (corresponding to amino acids 1-169, produced at Accelegan Inc.); biotin (biotinylated); purchased Accelegan Inc; test: KRas binding assay (TR-FRET tracer displacement), KRas G12S; details: TR-FRET tracer displacement, KRas G12S
Sequence (P01116 1-169 isoform P01116-2 G12S): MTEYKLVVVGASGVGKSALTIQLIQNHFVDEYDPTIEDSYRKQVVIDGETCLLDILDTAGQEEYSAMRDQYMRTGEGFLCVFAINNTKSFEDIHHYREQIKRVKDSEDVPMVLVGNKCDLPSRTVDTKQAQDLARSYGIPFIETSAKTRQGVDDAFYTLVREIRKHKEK
Assay metric: IC50 (nM)

Use these answered entries as a reference point.
Molecule: Cc1cc2[nH]ncc2c(-c2ncc3c(N4CCC[C@]5(C4)NC(=O)NC5=O)nc(OC[C@@]45CCCN4C[C@H](F)C5)nc3c2F)c1C
Units symbol: nM
IC50: 12
--
Molecule: Cc1cc2[nH]nnc2c(-c2ncc3c(N4CCOC[C@@](C)(O)C4)nc(OCC45CCCN4CCC5)nc3c2F)c1C
Units symbol: nM
IC50: 4660
--
Molecule: C[C@@]1(O)CCCN(c2nc(OC[C@@]34CCCN3C[C@H](F)C4)nc3c(F)c(-c4c(C5CC5)c(Cl)cc5[nH]ncc45)ncc23)C1
Units symbol: nM
IC50: 8
--
Molecule: Cc1ccc2c(-c3ncc4c(N5C[C@@H]6C[C@H](C5)[C@H](O)C6)nc(OC[C@@]56CCCN5C[C@H](F)C6)nc4c3F)cc(O)cc2c1
Units symbol: nM
IC50: 64

A: Cc1cc2[nH]nnc2c(-c2ncc3c(N4CCCC5(C4)NC(=O)NC5=O)nc(OCC45CCCN4CCC5)nc3c2F)c1C (stereo not drawn)
B: CCc1c(F)ccc2cc(O)cc(-c3ncc4c(N5CC6CCC(C5)S6)nc(OC[C@@]56CCCN5C[C@H](F)C6)nc4c3F)c12
## Task Please state the entry with greater IC50 among A and B . # reply format: chosen label
## Result A

* * *

molecular target: KRas^Q61H (Homo sapiens, UniProt P01116, Q61H); construct: Biotinylated KRas (corresponding to amino acids 1-169, produced at Accelegan Inc.); biotin (biotinylated); purchased Accelegan Inc; assay: KRas binding assay (TR-FRET tracer displacement), KRas Q61H; conditions: single point, 10 nM compound, TR-FRET
Sequence (P01116 1-169 isoform P01116-2 Q61H): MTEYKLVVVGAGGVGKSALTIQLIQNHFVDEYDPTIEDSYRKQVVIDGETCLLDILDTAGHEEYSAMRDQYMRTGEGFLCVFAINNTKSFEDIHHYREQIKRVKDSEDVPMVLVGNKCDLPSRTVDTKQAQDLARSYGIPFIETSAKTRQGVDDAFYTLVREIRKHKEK
Assay metric: inhibition at 0.01 µM (%)

Compound: CCNC(=O)OC[C@@H]1CC[C@]2(COc3nc(N4CCC[C@@](C)(O)C4)c4cnc(-c5cc(O)cc6ccc(F)c(CC)c56)c(F)c4n3)CCCN12 [Example 717]
Measured on: KRas^Q61H (Homo sapiens, UniProt P01116, Q61H)
inhibition at 0.01 µM (%): 92
--
Compound: CCc1cccc2cc3[nH]ncc3c(-c3ncc4c(N5C[C@@H]6C[C@H](C5)[C@H](O)C6)nc(OC[C@@]56CCCN5C[C@H](F)C6)nc4c3F)c12 [Example 767]
Measured on: KRas^Q61H (Homo sapiens, UniProt P01116, Q61H)
inhibition at 0.01 µM (%): 48
--
Compound: C#Cc1c(F)ccc2cc(O)cc(-c3ncc4c(N5CCC[C@@](C)(O)C5)nc(OCC5(CN6CCCC6)CC5)nc4c3F)c12 [Example 752]
Measured on: KRas^Q61H (Homo sapiens, UniProt P01116, Q61H)
inhibition at 0.01 µM (%): 99

1: CCc1c(F)ccc2cc(O)cc(-c3ncc4c(N5CC6CC(O)C(C6)C5)nc(OC[C@]56CCCN5[C@H](COC(=O)N(C)C)CC6)nc4c3F)c12 (stereo partly shown) [Example 707]
2: Oc1cc(-c2ncc3c(N4C[C@@H]5C[C@H](C4)[C@H](O)C5)nc(OC[C@@]45CCCN4C[C@H](F)C5)nc3c2F)c2ccccc2c1 [Example 737]
## Task Please state the entry with greater inhibition at 0.01 µM among 1 and 2 . # reply format: chosen label
## Result 1
(1: 85%, 2: 46%)
